- Test system: MDA-MB-231 breast
- ASSAY OVERVIEW: NCI-60 one-dose screen, 48 h (100 = growth as untreated, 0 = no growth, -100 = all killed)
- EXPERIMENTAL PARAMETERS: 10 µM unless noted
Compounds without any hit were thinned out: in the full panel of roughly 83,000, 20% have a hit.
EXPERIMENTAL READOUT: growth (%)
The answer is to be given in %; state only the numeric part.

Task item: Recall the recorded growth for O=C(/C=C/c1cccc(O)c1)c1ccccc1O with MDA-MB-231 breast and state it.
Reply: 80.3

Task item: Ok, now N#Cc1cnc2cc(OC[C@@H](O)CO)c(NC(=O)CC3CSSC3)cc2c1Nc1ccc(OCc2cccc(F)c2)c(Cl)c1
Reply: -60.5

Task item: Try this molecule too: CCCCC[C@H]1C/C=C2/C(=O)C(Cl)=C[C@@H]2C/C=C\CCCC(=O)O1
Reply: -10.7

Task item: How about COC(=O)[C@]12CC[C@@H](C)[C@H](C)[C@@H]1C1=CC[C@@H]3[C@@]4(C)C[C@@H](O)OC[C@](C)(C=O)C4C(=O)C[C@@]3(C)[C@]1(C)CC2 (some centres not stated) ?
Reply: -14.9

Task item: Now consider Cc1ccc2oc(=O)cc(-c3sc(N4CCCCC4)nc3-c3ccccc3)c2c1 .
Reply: 88.1

Task item: Now try CC(=O)O[C@H]1CC[C@]2(C)[C@H]3C(=O)C=C4[C@@H]5C[C@](C)(C(=O)N6CCCNCC6)CC[C@]5(C)CC[C@@]4(C)[C@]3(C)CC[C@H]2C1(C)C .
Reply: -84.6

Task item: Cn1c2c(Cl)c(Cl)ccc2c2c(C#N)c[nH]c(=O)c21 , same question.
Reply: 98.5

Task item: Again, but for Nc1nc2c(c(=O)[nH]1)C(c1ccc3c(c1)OCO3)C=C(C(=O)O)N2 (configuration not stated)
Reply: 121

Task item: Can you handle CCCC(=O)N1CCCCC1CC (configuration not stated) next?
Reply: 115

Task item: Same lookup for Nc1c(C(=O)Nc2c(Cl)cccc2Cl)sc2nc3c(cc12)CCCC3 , please.
Reply: 82.5

Task item: Proceed to COc1ccc(/C=C2\N=C(c3ccccc3)N(c3cc(OC)c(OC)cc3C(=O)N3N=C(C)CC3=O)C2=O)cc1
Reply: 87.4

Task item: Would you mind doing Cc1ccc(Cc2cnc(NC(=O)/C=C/c3cccc(C)c3)s2)cc1 as well?
Reply: 3.61

Task item: Same for CC1(C)CC[C@]2(C(=O)NCCNCCN)CC[C@]3(C)C(=CC[C@@H]4[C@@]5(C)CCC(=O)C(C)(C)[C@@H]5CC[C@]43C)[C@@H]2C1
Reply: 6.83

Task item: Next molecule up: CC(=O)O[C@H]1CC[C@@]2(C)C(=CC[C@@H]3[C@@H]2CC[C@]2(C)C(=O)N(O)C(=O)C[C@@H]32)C1
Reply: 97.9

Task item: Entry C/C(=N\NC(=O)C(C)SC(C)C(=O)N/N=C(\C)c1cccnc1)c1cccnc1 (configuration not stated) please
Reply: 109

Task item: Repeat for the following molecule: COc1cccc(-c2nn(-c3ccccc3)cc2-c2ccnc(NCCCNS(=O)(=O)c3cccc(F)c3)c2)c1
Reply: 5.9

Task item: Do the same for Nc1c2c(nc3ccc(Cl)cc13)CC(c1ccc(O)cc1)CC2=O (configuration not stated) please
Reply: 68.5

Task item: Same question for CNC(=O)c1cc(Oc2ccc3nc(NC(=O)Nc4ccc(Cl)cc4)sc3c2)ccn1 please.
Reply: 34.4

Task item: Record: Nc1c(C(=O)Nc2cccc3ccccc23)sc2nc3c(cc12)CCCC3
Reply: 33.2

Task item: What about this molecule? NC1=NN(c2ccccc2)C(=O)/C1=C/c1ccc(Cl)cc1
Reply: -99

Task item: Next up: Nc1c2c(nc3ccc(Br)cc13)CC(c1ccccc1)CC2=O (configuration not stated)
Reply: 59.6

Task item: Okay, and C=C(C)[C@@H]1CC[C@]2(C(=O)OC)CC[C@]3(C)[C@H](CC[C@@H]4[C@@](C)(CC/C(N)=N/O)[C@H](C(=C)C)CC[C@]43C)[C@@H]12 ?
Reply: 104

Task item: Entry CC(C)(C)n1cc(-c2ccnc(NCCCNS(=O)(=O)c3ccc(Cl)cc3)c2)c(-c2cccc(F)c2)n1 please
Reply: 81.6

Task item: Next entry: Clc1ccccc1-c1nc(Nc2nc3ccccc3s2)nc(C(Cl)(Cl)Cl)n1
Reply: 14.5

Task item: Request: CC1(C)NC2=C(C(Nc3cccnc3)N1)C(c1ccc([N+](=O)[O-])cc1)C(C(=O)c1ccc(N=[N+]=[N-])cc1)O2 (configuration not stated)
Reply: 102

Task item: Another molecule to check: O=C(O)/C(=C/c1ccc(O)cc1)c1ccccc1
Reply: 103

Task item: Try this molecule too: COC(=O)[C@@H]1[C@H]2C[C@H]3c4[nH]c5cc(OC)ccc5c4CCN3C[C@@H]2C[C@H](OC(=O)/C=C/c2ccnc(OC)c2)[C@H]1OC
Reply: -54.6

Task item: Same question for COc1ccc(/C=C/C(=O)NCCO)cc1 please.
Reply: 105

Task item: Entry C=C1C(=O)O[C@H]2[C@H]1CC/C(Cn1cc(-c3ccc(F)cc3)nn1)=C\CC[C@@]1(C)O[C@@H]21 please
Reply: -46.2

Task item: // same read-out, input: Cn1cc(-c2nc(-c3c[nH]c4ncccc34)cs2)c2cc(Br)ccc21
Reply: 84.6

Task item: Then this molecule: Cc1ccsc1-c1ccc2c(c1)COC2(CCCN(C)C)c1ccc(F)cc1 (configuration not stated)
Reply: 51.1

Task item: Also check Cc1cc(Cl)nc(N(CCNc2ccnc3cc(Cl)ccc23)Cc2ccco2)n1
Reply: 19.3

Task item: What would you report for Cc1cc(Cl)c2c(N(C)C)cccc2n1 ?
Reply: 92.8

Task item: Proceed to c1ccc2[nH]c(-c3cc(-c4ccc5c(c4)OCO5)n[nH]3)nc2c1
Reply: 65

Task item: Now consider COc1cc(-c2cc3ncccc3c3nc(OCCN(C)C)c4cccnc4c23)cc(OC)c1OC and answer again.
Reply: 20.2

Task item: Same lookup for O=c1[nH]c2c3ccncc3cc(-c3cccc(Cl)c3)c2c2cnccc12 , please.
Reply: 35.1

Task item: # iterate: Cc1c(C)c2c(c(C)c1NC(=O)CCCCCCC(=O)O)CCC(C)(CCCC(C)CCCC(C)CCCC(C)C)O2 (configuration not stated)
Reply: 101
